- Test system: E. coli R-563
- METHOD_DESCRIPTION: In vitro antibacterial activity (MIC)
- Assay type: cell-based
- CONDITION_INFO: Escherichia coli, R563, E. coli R-563; read-out: MIC
Structures can show the parent of a compound that is named as a salt.
QUANTITY_MEASURED: MIC (µg/mL)
I only need the number, in µg/mL, no unit after it.

Could you share which MIC value was measured for Cc1nc(C)n(CCCC2CCN(C=N[C@@H]3C(=O)N4[C@@H]3SC(C)(C)[C@@H]4C(=O)O)CC2)c1C [E, hydrate hydrochloride] ?
4

Name the recorded MIC for CC1(C)S[C@@H]2[C@H](N=CN3CCC(Cc4ncc[nH]4)CC3)C(=O)N2[C@H]1C(=O)O [Q, hydrochloride] .
0.062

Please report the recorded MIC for CC1(C)S[C@@H]2[C@H](N=CN3CCC(CCCn4ccnc4)CC3)C(=O)N2[C@H]1C(=O)O [C, hydrochloride monohydrate] .
4

Please report the recorded MIC for Cc1nccn1CCCC1CCN(C=N[C@@H]2C(=O)N3[C@@H]2SC(C)(C)[C@@H]3C(=O)O)CC1 [F, hydrate] .
0.062

---

- Test system: C. freundii CDC6
- METHOD_DESCRIPTION: In vitro antibacterial activity (MIC)
- Format: cell-based
- CONDITION_INFO: Citrobacter freundii, CDC6, C. freundii CDC6; read-out: MIC
Where a name gives a salt, the structure may show the parent alone.
Mark met for MIC under 0.5 µg/mL, not met if at or over.

Say whether its MIC is strictly beneath 0.5 µg/mL. Entry: CC1(C)S[C@@H]2[C@H](N=CN3CCC(CC4=NCCN4)CC3)C(=O)N2[C@H]1C(=O)O [M, hydrochloride]
met

Take the compound Cc1nc(C)n(CCCC2CCN(C=N[C@@H]3C(=O)N4[C@@H]3SC(C)(C)[C@@H]4C(=O)O)CC2)c1C [E, hydrate hydrochloride] and say whether its MIC is less than 0.5 µg/mL.
met

# check: MIC < 0.5 µg/mL for CC1(C)S[C@@H]2[C@H](N=CN3CCC(CCCn4ccnc4N)CC3)C(=O)N2[C@H]1C(=O)O [I, hydrochloride]
met

Dear reviewer, please state whether Cc1nccn1CCCC1CCN(C=N[C@@H]2C(=O)N3[C@@H]2SC(C)(C)[C@@H]3C(=O)O)CC1 [F, hydrate] has MIC strictly beneath 0.5 µg/mL.
met

Lab note: MIC threshold 0.5 µg/mL. Does this compound come in strictly under it? CC1(C)S[C@@H]2[C@H](N=CN3CCC(CCCn4ccnc4CO)CC3)C(=O)N2[C@H]1C(=O)O [R, hydrate]
met

Lab note: confirm whether the reported MIC for this compound is below 0.5 µg/mL, equality not counting. compound: CC1(C)S[C@@H]2[C@H](N=CN3CCC(Cn4ccnc4CN)CC3)C(=O)N2[C@H]1C(=O)O [J, hydrochloride]
not met

Is the reported MIC for CC1(C)S[C@@H]2[C@H](N=CN3CCC(CCC4=NCCN4)CC3)C(=O)N2[C@H]1C(=O)O [N, hydrochloride] strictly below 0.5 µg/mL?
met

# check: MIC < 0.5 µg/mL for CC1(C)S[C@@H]2[C@H](N=CN3CCC(Cn4ccnc4N)CC3)C(=O)N2[C@H]1C(=O)O [H, hydrochloride]
met

Dear reviewer, please state whether CCc1nc(C)cn1CCCC1CCN(C=N[C@@H]2C(=O)N3[C@@H]2SC(C)(C)[C@@H]3C(=O)O)CC1 [G, hydrochloride] has MIC strictly beneath 0.5 µg/mL.
met

For this compound, is MIC lower than 0.5 µg/mL? CC1(C)S[C@@H]2[C@H](N=CN3CCC(CCn4ccnc4)CC3)C(=O)N2[C@H]1C(=O)O [B, hydrate hydrochloride]
met

Just wondering, is MIC of CC1(C)S[C@@H]2[C@H](N=CN3CCC(CCCn4ccnc4)CC3)C(=O)N2[C@H]1C(=O)O [C, hydrochloride monohydrate] below 0.5 µg/mL?
not met

Bench note: check whether CC1(C)S[C@@H]2[C@H](N=CN3CCCC(c4ncc[nH]4)C3)C(=O)N2[C@H]1C(=O)O (stereo partly shown) [P, hydrochloride] shows MIC below 0.5 µg/mL
not met

Is it true that MIC reported for CC1(C)S[C@@H]2[C@H](N=CN3CCC(Cc4ncc[nH]4)CC3)C(=O)N2[C@H]1C(=O)O [Q, hydrochloride] is less than 0.5 µg/mL?
not met

---

- Test system: P. mirabilis 190
- METHOD_DESCRIPTION: In vitro antibacterial activity (MIC)
- Format: cell-based
- CONDITION_INFO: Proteus mirabilis, 190, P. mirabilis 190; read-out: MIC
Counter-ions that a name gives are not always drawn.
QUANTITY_MEASURED: MIC (µg/mL)
Give just the number in µg/mL; leave the unit off.

Quick one: MIC for CC1(C)S[C@@H]2[C@H](N=CN3CCC(CCCn4ccnc4CO)CC3)C(=O)N2[C@H]1C(=O)O [R, hydrate] ?
0.062

Endpoint output: MIC of CC1(C)S[C@@H]2[C@H](N=CN3CCC(CCCn4ccnc4)CC3)C(=O)N2[C@H]1C(=O)O [C, hydrochloride monohydrate] . Value?
8

Which MIC reading was recorded for the compound CC1(C)S[C@@H]2[C@H](N=CN3CCC(CCC4=NCCN4)CC3)C(=O)N2[C@H]1C(=O)O [N, hydrochloride] ?
0.125

Need MIC of CC1(C)S[C@@H]2[C@H](N=CN3CCC(C4=NCCN4)CC3)C(=O)N2[C@H]1C(=O)O [L, hydrochloride] , thanks.
0.5

---

Exercise: state measured MIC for each of the molecules provided.
- Tested on: P. aeruginosa Stone 130
- METHOD_DESCRIPTION: In vitro antibacterial activity (MIC)
- Assay type: cell-based
- CONDITION_INFO: Pseudomonas aeruginosa, STONE130, read-out: MIC
Structures can show the parent of a compound that is named as a salt.

Lab note: need MIC for CC1(C)S[C@@H]2[C@H](N=CN3CCC(CCC4=NCCN4)CC3)C(=O)N2[C@H]1C(=O)O [N, hydrochloride] on P. aeruginosa Stone 130, anyone have it?
> 128 µg/mL

Recorded MIC for CC1(C)S[C@@H]2[C@H](N=CN3CCC(Cc4ncc[nH]4)CC3)C(=O)N2[C@H]1C(=O)O [Q, hydrochloride] with P. aeruginosa Stone 130, please?
> 128 µg/mL

Find MIC (P. aeruginosa Stone 130) for the entry CC1(C)S[C@@H]2[C@H](N=CN3CCC(Cn4ccnc4N)CC3)C(=O)N2[C@H]1C(=O)O [H, hydrochloride]
> 128 µg/mL

---

So I've got a bunch of compounds here, and I need their MIC values.
- System: S. faecalis C1
- METHOD_DESCRIPTION: In vitro antibacterial activity (MIC)
- Assay type: cell-based
- CONDITION_INFO: Enterococcus faecalis; S. faecalis C1; read-out: MIC
Counter-ions that a name gives are not always drawn.
Respond with the bare value in mg/L.

Request the reported MIC associated with CC1(C)S[C@@H]2[C@H](N=CN3CCC(CCCn4ccnc4[N+](=O)[O-])CC3)C(=O)N2[C@H]1C(=O)O [K, hydrate]
128

I have this compound here, CC1(C)S[C@@H]2[C@H](N=CN3CCC(CCC4=NCCN4)CC3)C(=O)N2[C@H]1C(=O)O [N, hydrochloride] , and I need its recorded MIC.
64

Sample CC1(C)S[C@@H]2[C@H](N=CN3CCC(Cn4ccnc4CN)CC3)C(=O)N2[C@H]1C(=O)O [J, hydrochloride] — what was its MIC?
128

---

Exercise: state measured MIC for each of the compounds provided.
- Test system: E. coli 257
- METHOD_DESCRIPTION: In vitro antibacterial activity (MIC, Mueller-Hinton broth)
- Format: cell-based
- CONDITION_INFO: Escherichia coli, 257, E. coli 257; read-out: MIC
Structures can show the parent of a compound that is named as a salt.
State just the number; it will be interpreted in µg/mL.

Lab note: need MIC with E. coli 257 for entry Cc1nc(C)n(CCCC2CCN(C=N[C@@H]3C(=O)N4[C@@H]3SC(C)(C)[C@@H]4C(=O)O)CC2)c1C [E, hydrate hydrochloride] , please look it up.
0.062

Form: Entry = CC1(C)S[C@@H]2[C@H](N=CN3CCC(CCCn4ccnc4)CC3)C(=O)N2[C@H]1C(=O)O [C, hydrochloride monohydrate] | System = E. coli 257 | MIC = ____
2

Hello, I am looking for reported MIC with E. coli 257 for CC1(C)S[C@@H]2[C@H](N=CN3CCC(CCCn4ccnc4CO)CC3)C(=O)N2[C@H]1C(=O)O [R, hydrate] . Could you help?
0.016

Query the reported MIC for E. coli 257; item: Cc1nccn1CCCC1CCN(C=N[C@@H]2C(=O)N3[C@@H]2SC(C)(C)[C@@H]3C(=O)O)CC1 [F, hydrate]
0.125

---

- Tested on: K. pneumoniae 4964
- METHOD_DESCRIPTION: In vitro antibacterial activity (MIC)
- Type: cell-based
- CONDITION_INFO: Klebsiella pneumoniae, 4964, K. pneumoniae 4964; read-out: MIC
Counter-ions that a name gives are not always drawn.
In plain terms, low MIC, meaning strictly below 1 µg/mL, gives t, and everything else gives f.

Is the reported MIC for CC1(C)S[C@@H]2[C@H](N=CN3CCCC(c4ncc[nH]4)C3)C(=O)N2[C@H]1C(=O)O (stereo partly shown) [P, hydrochloride] strictly below 1 µg/mL?
f

Problem: For the compound CC1(C)S[C@@H]2[C@H](N=CN3CCC(c4ncc[nH]4)CC3)C(=O)N2[C@H]1C(=O)O [O, hydrochloride trihydrate] , is MIC under 1 µg/mL?
f

Determine whether this compound shows MIC lower than 1 µg/mL (ties excluded): CC1(C)S[C@@H]2[C@H](N=CN3CCC(CC4=NCCN4)CC3)C(=O)N2[C@H]1C(=O)O [M, hydrochloride]
f

Please determine if CC1(C)S[C@@H]2[C@H](N=CN3CCC(Cn4ccnc4N)CC3)C(=O)N2[C@H]1C(=O)O [H, hydrochloride] is below 1 µg/mL in terms of MIC.
f

Item CN(C)C=Nc1nccn1CCCC1CCN(C=N[C@@H]2C(=O)N3[C@@H]2SC(C)(C)[C@@H]3C(=O)O)CC1 [S, hydrate] : MIC beneath 1 µg/mL, strictly?
t

Item CC1(C)S[C@@H]2[C@H](N=CN3CCC(CCCn4ccnc4[N+](=O)[O-])CC3)C(=O)N2[C@H]1C(=O)O [K, hydrate] : MIC beneath 1 µg/mL, strictly?
t

Is 1 µg/mL strictly greater than the compound's reported MIC? compound: CC1(C)S[C@@H]2[C@H](N=CN3CCC(CCCn4ccnc4)CC3)C(=O)N2[C@H]1C(=O)O [C, hydrochloride monohydrate]
f

Dear reviewer, please state whether CC1(C)S[C@@H]2[C@H](N=CN3CCC(CCCn4ccnc4CO)CC3)C(=O)N2[C@H]1C(=O)O [R, hydrate] has MIC strictly beneath 1 µg/mL.
t

Quick check: MIC of CC1(C)S[C@@H]2[C@H](N=CN3CCC(Cc4ncc[nH]4)CC3)C(=O)N2[C@H]1C(=O)O [Q, hydrochloride] under 1 µg/mL?
f

For CC1(C)S[C@@H]2[C@H](N=CN3CCC(Cn4ccnc4)CC3)C(=O)N2[C@H]1C(=O)O , is the recorded MIC below the cut-off of 1 µg/mL?
f

Is the reported MIC for CC1(C)S[C@@H]2[C@H](N=CN3CCC(Cn4ccnc4CN)CC3)C(=O)N2[C@H]1C(=O)O [J, hydrochloride] strictly below 1 µg/mL?
t

Is it true that MIC reported for CC1(C)S[C@@H]2[C@H](N=CN3CCC(C4=NCCN4)CC3)C(=O)N2[C@H]1C(=O)O [L, hydrochloride] is less than 1 µg/mL?
f
